Numbers sourced from patent US20170319688A1.

MEASUREMENT_TARGET: T1, cynomolgus RSPO3 (cynomolgus, UniProt A0A2K5UTQ7 22-273)
T1 construct: also called cyno RSPO3
T1 sequence: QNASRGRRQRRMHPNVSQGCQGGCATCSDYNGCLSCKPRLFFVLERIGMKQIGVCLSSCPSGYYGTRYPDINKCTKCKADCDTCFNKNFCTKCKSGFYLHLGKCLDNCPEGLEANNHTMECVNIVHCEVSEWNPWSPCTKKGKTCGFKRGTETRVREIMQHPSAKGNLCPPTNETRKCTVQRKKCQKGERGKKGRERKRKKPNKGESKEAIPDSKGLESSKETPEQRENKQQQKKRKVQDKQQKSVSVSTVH
ASSAY_PROTOCOL: SPR (BIAcore T200), RSPO3 immobilized, antibody injected, 25 C, 1:1 Langmuir
MEASURED_PARAMETER: Kd (nM)

• chimeric 4A6 (antibody, V domains shown, Chimeric counterpart of hu4A6 with the rat 4A6 variable domains) VH: EVQLVESGGGSVQPGRSLKVSCAASGFTFSDYDMAWVRQAPKKGLEWVATIIYDGSRTYYRDSVKGRFTLSRDNTKSTLCLQMDSLRSEDTATYYCAAHDRSFDYWGQGIMVTVSS VL: DIQMTQSPASLSASLGETVSIECLASEDISNDLVWYQQKSGKSPQLLIYAASRLQDGVPSRFSGSGFGTRFSLKISGMQPEDEADYFCQQSYKYLPTFGAGTKLGLK = 0.174
• chimeric 11C10 (antibody, V domains shown, Chimeric counterpart with the rat 11C10 variable domains) VH: EVQLVESGGGLVQPGRSLKLSCAASGFTFSDYDMAWVRQAPKKGLEWVATIIYDGSRTYYRDSVKGRFTISRANAKSTLYLQMDSLRSEDTATYYCATHDKTFDYWGQGVMVTVSS VL: DIQMTQSPASLSASLGETVTIECRASEDIYSDLAWYQQKPGNSPQLLIYDVNSLIHGVPSRFSGSGSGTQFSLKINNLQSEDVASYFCQQYDNYPNTFGAGTKLELK = 1.52
• anti-RSPO3 antibody 5D6 (WO2015/058132) (antibody, V domains shown) VH: EVQLQESGPSLVKPSQTLSLTCSVTGDSITSGYWNWIRKFPGNKFEYMGYISYSGKTYQNPSLKSRISITRDTSKNQYHLQLNSVTTEDTATYYCATYYGYGGPWFAYWGQGTLVTVSA VL: DIVLTQSPSSMYASLGERVTITCKASQDIDSYLSWFQQKPGKSPKTLIYLTNRLVDGVPSRFSGSGSGQDYSLTISSLEYEDMGIYYCLHYDEFPLTFGAGTKLEIK = 0.697
